target: GHSR1a (Homo sapiens, UniProt Q92847); assay: Calcium FLIPR assay, GHSR-1a agonism; conditions: HEK293/GHSR1a cells
Sequence (Q92847 whole entry): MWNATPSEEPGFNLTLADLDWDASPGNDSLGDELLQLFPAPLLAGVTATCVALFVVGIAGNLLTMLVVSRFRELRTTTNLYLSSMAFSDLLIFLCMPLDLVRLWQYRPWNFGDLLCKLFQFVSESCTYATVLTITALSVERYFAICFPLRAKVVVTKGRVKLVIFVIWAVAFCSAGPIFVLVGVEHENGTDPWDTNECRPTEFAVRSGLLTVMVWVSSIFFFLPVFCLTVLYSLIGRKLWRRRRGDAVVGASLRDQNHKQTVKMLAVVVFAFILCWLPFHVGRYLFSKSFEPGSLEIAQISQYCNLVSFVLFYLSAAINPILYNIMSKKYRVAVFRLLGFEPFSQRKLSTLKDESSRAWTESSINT
Please provide measured EC50 for the entries that follow.

IN: Give EC50 for CC(NC(=O)N(C)C1CCN(C)CC1)c1ccc(-c2sccc2CO)c(Cl)c1Cl (stereo not shown)
OUT: > 30 µM

IN: Assign EC50 to the following record: CC(NC(=O)N(C)C1CCN(C)CC1)c1ccc(-c2cncc(C=O)c2)c(Cl)c1Cl (stereo not shown)
OUT: > 30 µM

IN: Report measured EC50; entry is CC(C)Oc1ccc(-c2ccc(C(C)NC(=O)N(C)C3CCN(C)CC3)c(Cl)c2Cl)cn1 (stereo not shown)
OUT: 0.422 µM

IN: Note EC50 for the molecule shown: `C[C@@H](NC(=O)N(C)C1CCN(C)CC1)c1ccc(-c2cncc(F)n2)c(Cl)c1Cl`
OUT: > 30 µM

IN: Consider the molecule Cc1cncc(-c2ccc(C(C)NC(=O)N(C)C3CCN(C)CC3)c(Cl)c2Cl)c1 (stereo not shown) . State its measured EC50.
OUT: > 30 µM

IN: Consider the molecule CC(NC(=O)N(C)C1CCN(C)C1)c1ccc(-c2cn[nH]c2)c(Cl)c1Cl (stereo not shown) . State its measured EC50.
OUT: > 30 µM

IN: Tell me its EC50 given CN1CCC(N(C)C(=O)NC(c2ccc(-c3cncc(F)n3)c(Cl)c2Cl)C(F)(F)F)CC1 (stereo not shown) as the entry.
OUT: > 30 µM

IN: Could you please provide reported EC50 for CC(NC(=O)N(C)C1CCN(C)CC1)c1ccc(-c2ccc(C#N)cc2)c(Cl)c1Cl (stereo not shown) ? Thanks!
OUT: 0.217 µM

IN: Check the records and state EC50 for COc1ccc(C(C#N)NC(=O)N(C)C2CCN(C)CC2)c(Cl)c1Br (stereo not shown)
OUT: 0.009 µM

IN: Identify measured EC50 corresponding to CN1CCC(N(C)C(=O)NC(C#N)c2ccc(-c3ccsc3)c(Cl)c2Cl)CC1 (stereo not shown)
OUT: 0.028 µM

IN: Let me know recorded EC50 for COC(=O)C(NC(=O)N(C)C1CCN(C)CC1)c1ccc(-c2cnccn2)c(Cl)c1Cl (stereo not shown) , thanks.
OUT: > 30 µM

IN: For the molecule CN1CCC(N(C)C(=O)NC(c2ccc(-c3cnccn3)c(Cl)c2Cl)C(F)(F)F)C1 (stereo not shown) , report EC50.
OUT: > 30 µM

IN: Tell us which EC50 value is on record for CC(NC(=O)C(C)N1CCN(C)CC1)c1ccc(-c2cnccn2)c(Cl)c1Cl (stereo not shown)
OUT: > 30 µM

IN: Return value of EC50 for input CC(NC(=O)N(O)C1CCN(C)CC1)c1ccc(-c2cncnc2)c(Cl)c1Cl (stereo not shown) , no commentary.
OUT: > 30 µM

IN: Give the reported value of EC50 for this record: C#Cc1ccc(C(C)NC(=O)N(C)C2CCN(C)CC2)c(Cl)c1Cl (single isomer, unassigned) [Compound H0677]
OUT: > 30 µM

IN: Give EC50 for the following molecule: `CCN(C(=O)N[C@@H](C)c1ccc(-c2cnccn2)c(Cl)c1Cl)C1CCN(C)CC1`
OUT: > 30 µM

IN: # return recorded EC50 for input CC(NC(=O)N(C)C1CCN(C)CC1)c1ccc(C#Cc2ccsc2)c(Cl)c1Cl (stereo not shown)
OUT: > 30 µM

IN: Give the measured EC50 for CC(NC(=O)N(C)C1CCN(C)CC1)c1ccc(-c2ccc3[nH]ccc3c2)c(Cl)c1Cl (stereo not shown)
OUT: 0.885 µM

IN: Give the value of EC50 reported for the following: CC(NC(=O)N(C)C1CCN(C)CC1)c1ccc(/C=C/c2cccs2)c(Cl)c1Cl (stereo not shown)
OUT: > 30 µM

IN: Output EC50 of CC(NC(=O)N(C)C1CCN(C)CC1)c1ccc(-c2cnc(N3CCN(C)CC3)cn2)c(Cl)c1Cl (stereo not shown)
OUT: > 30 µM

IN: Kindly indicate its recorded EC50. Item: CC(NC(=O)N(C)C1CCN(C)CC1)c1ccc(-c2cnccn2)c2ccccc12 (stereo not shown)
OUT: > 30 µM

IN: # return recorded EC50 for entry CON(C(=O)NC(C)c1ccc(-c2cnccn2)c(Cl)c1Cl)C1CCN(C)CC1 (stereo not shown)
OUT: > 30 µM

IN: Please give the documented EC50 of CC(NC(=O)N(C)C1CCN(C)CC1)c1ccc(-c2cncc(-c3cn[nH]c3)c2)c(Cl)c1Cl (stereo not shown)
OUT: > 30 µM

IN: Report EC50, nothing else, for this molecule: CC(NC(=O)N(C)C1CCN(C)CC1)c1ccc(-c2ccc(C(F)F)s2)c(Cl)c1Cl (stereo not shown)
OUT: 0.01 µM

IN: Please report EC50 for the following molecule: CC(NC(=O)N(C)C1CCN(C)CC1)c1ccc(-c2ccccc2)c(Cl)c1Cl (stereo not shown)
OUT: 2 µM

IN: Complete the entry with EC50 for CN1CCC(N(O)C(=O)NC(CC2CC2)c2ccc(-c3cnccn3)c(Cl)c2Cl)CC1 (single isomer, unassigned) [Compound H0782]
OUT: 0.006 µM

IN: Identify measured EC50 corresponding to CN1CCC(N(C)C(=O)NC(CC2CC2)c2ccc(-c3cnccn3)c(Cl)c2Cl)C1 (stereo not shown)
OUT: > 30 µM

IN: Annotate the molecule CC(NC(=O)N(C)C1CCN(C)CC1)c1ccc(CF)c(Cl)c1Cl (stereo not shown) with its measured EC50.
OUT: 0.037 µM

IN: Please list EC50 recorded for the molecule CC(O)C#Cc1ccc(C(C)NC(=O)N(C)C2CCN(C)CC2)c(Cl)c1Cl (stereo not shown)
OUT: > 30 µM

IN: Identify EC50 associated with the molecule CC(NC(=O)N(C)C1CCN(C)CC1)c1ccc(-c2ccc(C(N)=O)cc2)c(Cl)c1Cl (stereo not shown)
OUT: > 30 µM

IN: Give the value of EC50 reported for the following: CC(NC(=O)N(C)C1CCN(C)CC1)c1ccc(-c2cncc(N)c2)c(Cl)c1Cl (stereo not shown)
OUT: > 30 µM
